Test: Biotin-PGE2 ELISA (PGE2-biotinamide binding to captured IgG)
Conditions: Biotin-PGE2 1 μM
Reported values of Binding to PGE2-Biotinamide (OD450) for individual entries
observation_type: Binding to PGE2-Biotinamide (OD450)

- K7H: human anti-PGE2 antibody from PROfusion mRNA display; VH SEQ ID NO 21, VL SEQ ID NO 24 (antibody, V domains shown) VH: EVQLVQSGSELKKPGASVKVSCKASGYSFTEYGISWVRQAPGQGPEWMGCISPYNGKLHYAQKFLGRVTMTTDTSTNTAYMELRSLKSDDTAVYYCARGGFSSYDSSGYYYVTDHWGQGTLVTVSS VL: DIRLTQSPSSLPASVGDRVTITCRASQSISTYLNWYQQTPGKAPSLLIYAASSLQSGVPSRFSGSGSGTDFTLTISSLQPEDFATYYCQQSYSPPPTFGGGTKVEIKR: 0.06
- L11: human anti-PGE2 antibody from PROfusion mRNA display; VH SEQ ID NO 25, VL SEQ ID NO 29 (antibody, V domains shown) VH: EVQLVQSGPELKKPGTSVKVSCKASGYTLTTYAMNWVRQAPGQGLEWMGWIDTSTGNPTYAPGFLGRFVFSLDTSLSTTYLQISSLKPDDTAVYYCARSSHTRPGDFWGQGTLVTVSS VL: QSGLTQPPSVSGTPGQRVTISCSGSESNVGTNSVNWYQQLPGAAPRLLIRGNSDRPSGVPDRFSASKSGTSASLAISRLQSEDEADYFCGACDGRLSGLYVFGTGTKVTVL: 0.05
- K1B: human anti-PGE2 antibody from PROfusion mRNA display; VH SEQ ID NO 5, VL SEQ ID NO 9 (antibody, V domains shown) VH: EVQLVQSGAEVKRPGASVKVSCKTSGYTFTNYDINWVRLAPGQGLEWMGCMNPTTGKTGYAQKFQGRVTMTRDTTIATAYMELSRLTSEDTAVYYCARGRGYSPGYGVAYADYWGQGTLVTVSS VL: DIQLTQSPSSLPASVGDRVTITCRASQSISTYLNWYQQTPGKAPSLLIYAASSLQSGVPSRFSGSGSGTDFTLTISSLQPEDFATYYCQQSYSPPPTFGGGTKVEIKR: 0.29
- K3A: human anti-PGE2 antibody from PROfusion mRNA display; VH SEQ ID NO 13, VL SEQ ID NO 17 (antibody, V domains shown) VH: EVQLVQSGAETKKPGASVEVSCKASGYSFTEYGISWVRQAPGQGPEWMGCISPYNGKLHYAQEFQGRVTMTTGTSTNTAYMELGSLRSDDTAVYYCARGGFSFYDSSGYYYVTDHWGQGTLVTVSS VL: DIRLTQSPSSLSASVGDRVTITCRASQSIGSYLNWYQQKSGKAPKLLIYAASKLQSGVPSRFSGSGFGTDFTLTISSLQPEDSATYYCQQSDTTPFTFGQGTKLEIKR: 0.51
- L21: human anti-PGE2 antibody from PROfusion mRNA display; VH SEQ ID NO 33, VL SEQ ID NO 36 (antibody, V domains shown) VH: EVQLVQSGSELKKPGTSVKVSCKASGYTLTTYAMNWVRQAPGQGLEWMGWIGTSTGNPTYAQGFTGRFVFSLDTSVNTAHLQIYSLKAEDTALYYCARSSLTRPADYWGQGTLVTVSS VL: QSGLTQPPSVSGAPGQRVTISCFGSSSNIGAGYDVHWYQQLPGAAPKLLIFGNNNRPSGVPDRFSGSKSGTSASLAITGLQAEDEADYYCQSCDSSLSGAVFGTGTKVTVL: 0.25

Sourced from patent US8624002B2
